tested on: U87MG cells; test: Cellular assay, inhibition of 2-HG production in U87MG cells; format: cell-based; conditions: Homo sapiens, U-87 MG, 48 h
compounds and their reported IC50

Consider the following illustrative entries.
>>> print(df.to_string())
                                   compound  outcome_measure  value_reported
0  N#Cc1ccnc(N2C(=O)CC[C@H]2C(=O)N(c2cccc(OC3CC3)c2)C(C(=O)NC2CC(F)(F)C2)c2ccccc2Cl)n1 (stereo partly drawn)             IC50        < 100 nM
1  N#Cc1ccnc(N2C(=O)CC[C@H]2C(=O)N(c2cccc(F)c2)[C@H](C(=O)NC2CCC(F)(F)CC2)c2ccccc2Cl)c1             IC50        < 100 nM

Short answer for N#Cc1ccnc(N2C(=O)CC[C@H]2C(=O)N(c2cc(F)cc(F)c2)[C@H](C(=O)NC2CC(F)(F)C2)c2ccc(Cl)cc2Cl)c1 : IC50 was < 100 nM
